system.tested: CDKs and other kinases (Homo sapiens, UniProt P24941)
Construct: other: CDK2A; residual activity (%) at 10 μM CDK2A; compound at 10 μM
method: Radiometric kinase assay (Eurofins Pharma Discovery or Reaction Biology Corporation Kinase Profiler)
Format: biochemical
run.parameters: CDK2A; read-out: CDK inhibition, Ki (μM) CDK2A
Mark condition met only for Ki values smaller than 0.3 µM; exact matches and larger values are condition not met.

A selection of reference data follows.
Cc1cnc(NC2CCC(N(C)C)CC2)nc1-c1cnc2ccc(Nc3cccnc3)cn12 (centres unmarked) [Compound 98]; condition not met
CN1CCC(Nc2ncc(F)c(-c3cnc4ccccn34)n2)CC1 [Compound 19]; condition not met
N[C@H]1CC[C@H](Nc2ncc(Cl)c(-c3cnc4c(-c5ccccc5)cc(C(F)(F)F)cn34)n2)CC1 [Compound 85]; condition not met
Cc1cnc(N[C@H]2CC[C@H](NS(C)(=O)=O)CC2)nc1-c1cnc2ccc(Nc3cncnc3)cn12 [Compound 126]; condition met
N[C@H]1CC[C@H](Nc2ncc(Cl)c(-c3cnc4ccc(NCc5ccc(F)cc5)cn34)n2)CC1 [Compound 41]; condition met
Cc1cnc(N[C@H]2CC[C@H](N)CC2)nc1-c1cnc2ccc(Nc3ccc(OC(F)F)nc3)cn12 [Compound 68]; condition not met
N[C@H]1CC[C@H](Nc2ncc(F)c(-c3cnc4ccc(Nc5ccccc5)cn34)n2)CC1 [Compound 6]; condition met

Shifting focus to the compound that follows.
Input: Record N[C@H]1CC[C@H](Nc2ncc(Cl)c(-c3cnc4ccccn34)n2)CC1 [Compound 42] : is its Ki strictly below 0.3 µM?
Output: condition met

---

system.tested: CDKs and other kinases (Homo sapiens, UniProt P06493)
Construct: other: CDK1B; residual activity (%) at 10 μM CDK1B; compound at 10 μM
Sequence (P06493 whole entry): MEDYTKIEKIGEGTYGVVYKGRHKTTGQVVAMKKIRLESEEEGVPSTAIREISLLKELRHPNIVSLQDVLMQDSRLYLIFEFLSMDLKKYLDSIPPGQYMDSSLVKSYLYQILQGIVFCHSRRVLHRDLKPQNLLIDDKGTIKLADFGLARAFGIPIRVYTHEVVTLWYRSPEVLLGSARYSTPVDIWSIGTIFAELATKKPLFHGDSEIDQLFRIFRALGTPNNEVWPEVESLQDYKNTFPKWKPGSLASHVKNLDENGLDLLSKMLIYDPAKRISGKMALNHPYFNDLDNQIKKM
method: Radiometric kinase assay (Eurofins Pharma Discovery or Reaction Biology Corporation Kinase Profiler)
Assay type: biochemical
run.parameters: CDK1B; compound at 10 μM; read-out: residual activity (%) at 10 μM CDK1B
// classify(record): look up remaining activity at 10 µM in ranges low bin (below 20%), mid bin (20% to below 60%), high bin (60% or more)

Cc1cnc(N[C@H]2CC[C@H](N)CC2)nc1-c1cnc2cc(Nc3cccnc3)ccn12; mid bin

Shifting focus to the compound that follows.
Input: Determine which band this compound sits in: `CCN[C@H]1CC[C@@H](Nc2ncc(C)c(-c3cnc4ccc(-c5ccccc5)cn34)n2)CC1`
Output: mid bin

---

Reported values of log10 Ki for individual entries
system.tested: CDK9/T1 (Homo sapiens)
Sequence (P50750 whole entry): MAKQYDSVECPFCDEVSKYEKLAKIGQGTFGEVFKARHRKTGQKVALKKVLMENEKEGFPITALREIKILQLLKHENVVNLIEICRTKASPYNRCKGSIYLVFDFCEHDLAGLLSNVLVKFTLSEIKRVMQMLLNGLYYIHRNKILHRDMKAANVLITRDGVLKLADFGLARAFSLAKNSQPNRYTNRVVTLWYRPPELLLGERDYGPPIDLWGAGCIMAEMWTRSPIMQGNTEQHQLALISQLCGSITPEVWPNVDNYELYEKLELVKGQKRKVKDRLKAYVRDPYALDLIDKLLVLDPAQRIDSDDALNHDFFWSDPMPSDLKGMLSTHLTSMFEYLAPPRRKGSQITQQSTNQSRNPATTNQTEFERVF
Sequence (O60563 whole entry partner): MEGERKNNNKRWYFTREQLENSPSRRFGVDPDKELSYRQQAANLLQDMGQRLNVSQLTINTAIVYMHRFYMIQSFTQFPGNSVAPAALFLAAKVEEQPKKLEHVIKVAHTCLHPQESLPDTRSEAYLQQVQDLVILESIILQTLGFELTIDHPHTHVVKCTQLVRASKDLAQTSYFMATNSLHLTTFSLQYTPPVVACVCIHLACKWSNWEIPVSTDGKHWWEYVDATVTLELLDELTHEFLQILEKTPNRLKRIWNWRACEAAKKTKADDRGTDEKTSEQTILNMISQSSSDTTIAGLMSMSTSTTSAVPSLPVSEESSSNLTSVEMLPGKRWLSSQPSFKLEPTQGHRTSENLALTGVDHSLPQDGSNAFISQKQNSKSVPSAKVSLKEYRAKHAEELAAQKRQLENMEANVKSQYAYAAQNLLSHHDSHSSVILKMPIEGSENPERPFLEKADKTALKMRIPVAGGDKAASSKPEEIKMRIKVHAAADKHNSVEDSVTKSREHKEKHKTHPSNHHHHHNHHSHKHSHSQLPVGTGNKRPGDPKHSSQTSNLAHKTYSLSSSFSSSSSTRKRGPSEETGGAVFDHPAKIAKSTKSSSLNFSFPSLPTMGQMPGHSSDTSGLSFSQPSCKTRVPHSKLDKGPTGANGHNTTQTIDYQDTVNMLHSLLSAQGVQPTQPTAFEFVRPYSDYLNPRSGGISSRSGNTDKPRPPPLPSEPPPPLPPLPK
method: ADP Glo Kinase assay CDK9/T1
Format: biochemical
run.parameters: CDK9T1; read-out: CDK inhibition, Ki (μM) CDK9T1
Give log10 of Ki, with Ki taken in µM.

Cc1cnc(N[C@H]2CC[C@H](N3CCC3)CC2)nc1-c1cnc2ccc(-c3ccccc3)cn12 [Compound 135]; 0.06

Input: For CDK9/T1 (Homo sapiens), give log10 Ki of the listed molecule: Cc1cnc(NC2CCOCC2)nc1-c1cnc2ccc(Nc3cccnc3)cn12 [Compound 103]
Output: -0.69

Input: For CDK9/T1 (Homo sapiens), give log10 Ki of the listed molecule: Cc1cnc(N[C@H]2CC[C@H](N)CC2)nc1-c1cnc2ccc(-c3ccc(S(=O)(=O)N(C)C)cc3)cn12 [Compound 62]
Output: -0.30

Input: For CDK9/T1 (Homo sapiens), give log10 Ki of the listed molecule: N[C@H]1CC[C@H](Nc2ncc(Cl)c(-c3cnc4ccc(NCc5ccc(F)cc5)cn34)n2)CC1 [Compound 41]
Output: -1.35

Input: For CDK9/T1 (Homo sapiens), give log10 Ki of the listed molecule: Cc1cnc(NC2CCC(N(C)C)CC2)nc1-c1cnc2ccc(Nc3cncnc3)cn12 (stereo not shown) [Compound 99]
Output: -2.22

Input: For CDK9/T1 (Homo sapiens), give log10 Ki of the listed molecule: N[C@H]1CC[C@H](Nc2ncc(F)c(-c3cnc4cc(-c5cccnc5)ccn34)n2)CC1 [Compound 45]
Output: -2.22

Input: For CDK9/T1 (Homo sapiens), give log10 Ki of the listed molecule: Cc1cnc(N[C@H]2CC[C@H](NC(C)C)CC2)nc1-c1cnc2ccc(Nc3cncnc3)cn12 [Compound 121]
Output: -1.49

Input: For CDK9/T1 (Homo sapiens), give log10 Ki of the listed molecule: N[C@H]1CC[C@H](Nc2ncc(F)c(-c3cnc4cc(Nc5cccnc5)ccn34)n2)CC1 [Compound 46]
Output: -2.40

Input: For CDK9/T1 (Homo sapiens), give log10 Ki of the listed molecule: Cc1cncc(Nc2ccc3ncc(-c4nc(N[C@H]5CC[C@H](N)CC5)ncc4C)n3c2)c1 [Compound 64]
Output: -1.80

Input: For CDK9/T1 (Homo sapiens), give log10 Ki of the listed molecule: COc1ccc(-c2ccc3ncc(-c4nc(N[C@H]5CC[C@H](N)CC5)ncc4Cl)n3c2)cc1 [Compound 82]
Output: -1.74

Input: For CDK9/T1 (Homo sapiens), give log10 Ki of the listed molecule: CNC1CCC(Nc2ncc(C)c(-c3cnc4ccc(Nc5cncnc5)cn34)n2)CC1 (stereo not shown) [Compound 109]
Output: -2.10

Input: For CDK9/T1 (Homo sapiens), give log10 Ki of the listed molecule: N[C@H]1CC[C@H](Nc2ncc(Cl)c(-c3cnc4ccc(C(F)(F)F)cn34)n2)CC1 [Compound 13]
Output: -1.62

Input: For CDK9/T1 (Homo sapiens), give log10 Ki of the listed molecule: Cc1cnc(N[C@H]2CC[C@H](N)CC2)nc1-c1cnc2ccc(C(F)(F)F)cn12 [Compound 9]
Output: -2.05
